Measured values drawn from patent US6114334A for this set.

Target: α2A-adrenoceptors (Homo sapiens, UniProt P08913)
Construct: Human cerebral cortex obtained at post-mortem; from tissue; host or cells: human cerebral cortex, post-mortem
Sequence (P08913 1-465): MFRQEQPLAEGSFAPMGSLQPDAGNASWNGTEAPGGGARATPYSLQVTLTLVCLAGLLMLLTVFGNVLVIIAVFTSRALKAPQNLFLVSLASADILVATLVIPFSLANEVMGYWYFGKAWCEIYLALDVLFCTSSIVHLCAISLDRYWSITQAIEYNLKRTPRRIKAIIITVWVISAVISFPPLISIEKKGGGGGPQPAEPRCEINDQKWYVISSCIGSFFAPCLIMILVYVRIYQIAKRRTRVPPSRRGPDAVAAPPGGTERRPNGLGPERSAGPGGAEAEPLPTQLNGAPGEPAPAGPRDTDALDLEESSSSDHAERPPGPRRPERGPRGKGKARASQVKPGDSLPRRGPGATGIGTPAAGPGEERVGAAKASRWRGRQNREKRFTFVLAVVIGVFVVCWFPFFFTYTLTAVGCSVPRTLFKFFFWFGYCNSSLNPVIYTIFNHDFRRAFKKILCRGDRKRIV
Assay: inhibition of tritiated RX 821002 binding to α2A-adrenoceptors in vitro
Design: species or system human (cerebral cortex post-mortem)
Details: 10^-6 M, human cerebral cortex, [3H]RX 821002; read-out: % displacement at 10^-6 M, α2A
Structures can show the parent of a compound that is named as a salt.
What inhibition at 1 µM was measured for each of the following?
Entry rule: numbers only, all in %.

q: Given Cc1ccccc1N1CCN(CC2(C)N=C(c3ccccc3)NC2=O)CC1 (centres unmarked) , state its recorded inhibition at 1 µM.
a: 93

q: Given "C=CCn1c(N)c(CN2CCN(c3cccc4c3OCCO4)CC2)c(=O)n1-c1ccccc1" , state its recorded inhibition at 1 µM.
a: 86

q: Given "Nc1c(CN2CCN(c3cccc4c3OCCO4)CC2)c(C2CC2)nn1-c1ncccn1" , state its recorded inhibition at 1 µM.
a: 100

q: Given "Cn1nc(-c2ccccc2)c(CN2CCN(c3cccc4c3OCCO4)CC2)c1N" , state its recorded inhibition at 1 µM.
a: 95

q: Given "Nc1nn(-c2ccccc2)c(N)c1CN1CCN(c2cccc3c2OCCO3)CC1" , state its recorded inhibition at 1 µM.
a: 85

q: Given "Nc1c(CN2CCN(c3cccc4c3OCCO4)CC2)c(C2CC2)nn1Cc1ccccc1" , state its recorded inhibition at 1 µM.
a: 100

q: Given Cn1nc(C2CC2)c(CN2CCN(c3cccc4c3OCCO4)CC2)c1N [Example 18, hydrochloride] , state its recorded inhibition at 1 µM.
a: 98

q: Given "N#Cc1ccc(-n2nc(C3CC3)c(CN3CCN(c4cccc5c4OCCO5)CC3)c2N)cc1" , state its recorded inhibition at 1 µM.
a: 91

q: Given "Nc1c(CN2CCN(c3cccc4c3OCCO4)CC2)c(C2CC2)nn1-c1ccccc1Cl" , state its recorded inhibition at 1 µM.
a: 100

q: Given C=CCN1C(=O)C(C)(CN2CCN(c3cccc4c3OCCO4)CC2)N=C1c1cccnc1 (centres unmarked) , state its recorded inhibition at 1 µM.
a: 76

q: Given "Cn1c(N)c(CN2CCN(c3cccc4ccccc34)CC2)c(=O)n1-c1ccccc1" , state its recorded inhibition at 1 µM.
a: 82

q: Given "Nc1c(CN2CCN(c3cccc4c3OCCO4)CC2)c(C2CC2)nn1-c1ccncc1" , state its recorded inhibition at 1 µM.
a: 96

q: Given "COc1ccc(-n2nc(C3CC3)c(CN3CCN(c4cccc5c4OCCO5)CC3)c2N)cc1" , state its recorded inhibition at 1 µM.
a: 86

q: Given "Cn1nc(C2CCC2)c(CN2CCN(c3cccc4c3OCCO4)CC2)c1N" , state its recorded inhibition at 1 µM.
a: 99

q: Given "Nc1c(CN2CCN(c3cccc4c3OCCO4)CC2)c(C2CC2)nn1-c1ccccn1" , state its recorded inhibition at 1 µM.
a: 100

q: Given "CCCn1c(N)c(CN2CCN(c3cccc4c3OCCO4)CC2)c(=O)n1-c1ccccc1" , state its recorded inhibition at 1 µM.
a: 73

q: Given "Nc1c(CN2CCN(c3cccc4c3OCCO4)CC2)c(C2CCCC2)nn1-c1ccccc1" , state its recorded inhibition at 1 µM.
a: 89

q: Given "CC(C)(C)c1nn(-c2ccccc2)c(N)c1CN1CCN(c2cccc3c2OCCO3)CC1" , state its recorded inhibition at 1 µM.
a: 66

q: Given "Nc1c(CN2CCN(c3cccc4c3OCCO4)CC2)c(C2CC2)nn1-c1ccc(Cl)cc1" , state its recorded inhibition at 1 µM.
a: 89

q: Given CC1(CN2CCN(c3cccc(Cl)c3)CC2)N=C(c2ccccc2)NC1=O (centres unmarked) , state its recorded inhibition at 1 µM.
a: 84

q: Given "Nc1c(CN2CCN(c3cccc4c3OCCO4)CC2)c(-c2ccccc2)nn1-c1ccccc1" , state its recorded inhibition at 1 µM.
a: 99

q: Given "Cn1nc(C2CCCC2)c(CN2CCN(c3cccc4c3OCCO4)CC2)c1N" , state its recorded inhibition at 1 µM.
a: 95

q: Given COc1ccccc1N1CCN(CC2(C)N=C(c3ccccc3)NC2=O)CC1 (centres unmarked) , state its recorded inhibition at 1 µM.
a: 69

q: Given "Nc1c(CN2CCN(c3cccc(Cl)c3)CC2)c(C2CC2)nn1-c1ccccc1" , state its recorded inhibition at 1 µM.
a: 99

q: Given "CC(C)Oc1ccccc1N1CCN(Cc2c(C3CCC3)nn(C)c2N)CC1" , state its recorded inhibition at 1 µM.
a: 99

q: Given "CC(C)Oc1ccccc1N1CCN(Cc2c(N)n(C)n(-c3ccccc3)c2=O)CC1" , state its recorded inhibition at 1 µM.
a: 100

q: Given "Cc1ccccc1N1CCN(Cc2c(N)n(C)n(-c3ccccc3)c2=O)CC1" , state its recorded inhibition at 1 µM.
a: 98

q: Given CC1(CN2CCN(c3cccc4c3OCCO4)CC2)N=C(c2cccnc2)NC1=O (centres unmarked) , state its recorded inhibition at 1 µM.
a: 69

q: Given "Cn1c(N)c(CN2CCN(c3cccc4ccoc34)CC2)c(=O)n1-c1ccccc1" , state its recorded inhibition at 1 µM.
a: 91

q: Given CC1(CN2CCN(c3cccc(C(F)(F)F)c3)CC2)N=C(c2ccccc2)NC1=O (centres unmarked) , state its recorded inhibition at 1 µM.
a: 57

q: Given "Cc1ccccc1N1CCN(Cc2c(C3CC3)nn(-c3ccccc3)c2N)CC1" , state its recorded inhibition at 1 µM.
a: 100

q: Given "CC(C)Oc1ccccc1N1CCN(Cc2c(C3CC3)nn(-c3ccccc3)c2N)CC1" , state its recorded inhibition at 1 µM.
a: 100

q: Given "Nc1c(CN2CCN(c3cccc4ccoc34)CC2)c(C2CC2)nn1-c1ccccc1" , state its recorded inhibition at 1 µM.
a: 99

q: Given "Nc1c(CN2CCN(c3cccc4c3OCCO4)CC2)c(C2CCC2)nn1-c1ccccc1" , state its recorded inhibition at 1 µM.
a: 100

q: Given COc1ccccc1N1CCN(CC2(C)N=C(c3cccnc3)NC2=O)CC1 (centres unmarked) , state its recorded inhibition at 1 µM.
a: 66
